Below is a list of entries, each paired with its recorded IC50 value.
# Target Under Test: Full length wild-type cereblon CRBN (Homo sapiens (Human), UniProt Q96SW2)
# Sequence (Q96SW2 whole entry): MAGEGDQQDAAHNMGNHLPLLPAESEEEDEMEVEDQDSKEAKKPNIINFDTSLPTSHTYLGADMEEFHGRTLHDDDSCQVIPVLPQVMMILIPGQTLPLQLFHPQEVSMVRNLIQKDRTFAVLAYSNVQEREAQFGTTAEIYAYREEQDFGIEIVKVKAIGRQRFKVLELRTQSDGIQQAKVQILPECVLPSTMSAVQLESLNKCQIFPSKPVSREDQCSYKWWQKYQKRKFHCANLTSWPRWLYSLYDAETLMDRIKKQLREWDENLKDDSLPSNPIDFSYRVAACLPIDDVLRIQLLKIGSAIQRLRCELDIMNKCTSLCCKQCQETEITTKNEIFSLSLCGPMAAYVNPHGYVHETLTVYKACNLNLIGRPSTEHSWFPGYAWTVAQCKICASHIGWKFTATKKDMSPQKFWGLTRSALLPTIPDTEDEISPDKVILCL
# Test Protocol: fluorescence polarization (FP) assay, cereblon binding
# Setup Conditions: read-out: rFP IC50

[
  {
    "Compound": "CC1(c2ccc(NC(=O)OCc3ccc4c(c3)C(=O)N(C3CCC(=O)NC3=O)C4)cn2)CC1 (stereo not shown)",
    "Target Under Test": "Full length wild-type cereblon CRBN (Homo sapiens (Human), UniProt Q96SW2)",
    "IC50": "< 500 nM"
  },
  {
    "Compound": "O=C1CCC(N2Cc3ccc(COC(=O)Nc4ccc(-c5ccccn5)cc4F)cc3C2=O)C(=O)N1 (stereo not shown)",
    "Target Under Test": "Full length wild-type cereblon CRBN (Homo sapiens (Human), UniProt Q96SW2)",
    "IC50": "< 500 nM"
  },
  {
    "Compound": "O=C1CCC(N2Cc3ccc(COC(=O)Nc4ccc(N5CC6CCC(C5)O6)nc4)cc3C2=O)C(=O)N1 (stereo not shown)",
    "Target Under Test": "Full length wild-type cereblon CRBN (Homo sapiens (Human), UniProt Q96SW2)",
    "IC50": "< 500 nM"
  },
  {
    "Compound": "O=C1CCC(N2Cc3ccc(COC(=O)Nc4ccc(C5CC5(F)F)cc4)cc3C2=O)C(=O)N1 (stereo not shown)",
    "Target Under Test": "Full length wild-type cereblon CRBN (Homo sapiens (Human), UniProt Q96SW2)",
    "IC50": "> 1700 nM"
  }
]
